Reference source: ChEMBL document CHEMBL1961873

Entries and their measured inhibition follow.
- TARGET SYSTEM: cGMP-dependent protein kinase 1 (Homo sapiens);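 further: listed percent inhibition of PRKG1 is a mean value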
- Sequence (whole entry): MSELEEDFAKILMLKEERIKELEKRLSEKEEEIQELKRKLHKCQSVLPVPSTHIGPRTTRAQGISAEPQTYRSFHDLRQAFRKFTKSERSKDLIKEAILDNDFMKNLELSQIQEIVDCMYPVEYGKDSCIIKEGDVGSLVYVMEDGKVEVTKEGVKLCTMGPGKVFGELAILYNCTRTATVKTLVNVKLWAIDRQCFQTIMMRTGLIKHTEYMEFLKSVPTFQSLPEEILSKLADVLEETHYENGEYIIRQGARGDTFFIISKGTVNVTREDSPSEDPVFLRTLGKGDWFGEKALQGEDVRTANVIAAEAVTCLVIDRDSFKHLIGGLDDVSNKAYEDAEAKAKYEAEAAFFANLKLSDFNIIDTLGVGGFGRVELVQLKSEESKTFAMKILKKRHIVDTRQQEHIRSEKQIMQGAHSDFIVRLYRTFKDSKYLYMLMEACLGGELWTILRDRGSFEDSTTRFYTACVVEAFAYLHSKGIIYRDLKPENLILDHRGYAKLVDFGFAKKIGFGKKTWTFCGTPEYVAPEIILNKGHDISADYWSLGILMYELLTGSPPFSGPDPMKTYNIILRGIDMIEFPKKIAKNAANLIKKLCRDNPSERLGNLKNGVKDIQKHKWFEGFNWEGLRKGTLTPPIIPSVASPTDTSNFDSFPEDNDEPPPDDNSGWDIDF
- RUN CONDITIONS: at 1 µM
MEASURED PROPERTY: inhibition

> print(dat)
                                 smiles.repr  test.value
 1   Cc1nc(-c2ccccc2)n2nc(NCCCN3CCOCC3)ncc12       3.22%
 2   Cc1ccc(C(=O)NC2CC2)cc1-c1ccc2[nH]ncc2c1       1.62%
 3  Nc1nccc(C#Cc2cncnc2Nc2ccc(OCc3cccc(F)c3)c(Cl)c2)n1       5.43%
 4  Cc1ccc2c(c1)/C(=N/Nc1ccc(S(N)(=O)=O)cc1)C(=O)N2       0.41%
 5  Nc1nccc(-c2c(-c3ccc(F)cc3)ncn2CCCN2CCOCC2)n1       4.99%
 6  Cc1cc(O)cc(C)c1/C=C/c1cncc(C(=O)N(C)C)c1       3.73%
 7   Cc1ccc(O)cc1Nc1ccnc2ccc(S(C)(=O)=O)cc12       4.22%
 8  O=C1Nc2ccccc2/C1=C/Nc1ccc2[nH]c(=O)[nH]c2c1       6.34%
 9  C[C@@H](Oc1cc(-n2cnc3ccc(OCC4CCN(C)CC4)cc32)sc1C(N)=O)c1ccccc1C(F)(F)F       0.25%
10  O=C1Nc2ccc(-c3cccnc3)cc2C1=Cc1cc(Br)c(O)c(Br)c1         11%
11  CN(C)C(=O)O[C@@H]1CN[C@@H](C#Cc2cc3ncnc(Nc4ccc(OCc5cccc(F)c5)c(Cl)c4)c3s2)C1       1.64%
12  Cc1ccc(Nc2ccnc(Nc3cccc(C(N)=O)c3)n2)cc1O       3.77%
13  Cc1cc(-c2ccccn2)cc(C)c1/C=C/c1cncc(-c2nn[nH]n2)c1       5.76%
14  NC(=O)c1sc(-n2cnc3ccccc32)cc1OCc1ccccc1Br       5.69%
15  COc1cc2ncn(-c3cc(OCc4ccccc4S(C)(=O)=O)c(C#N)s3)c2cc1OC       5.27%
16  NS(=O)(=O)c1ccc(-c2cc3ccncc3cc2OCc2ccccc2)cc1       4.78%
17  COc1cccc(-n2ncc3c(N/N=C/c4ccc(S(C)(=O)=O)cc4)ncnc32)c1       1.69%
18   NC(=O)c1cccc(Nc2nccc(Nc3cccc(F)c3)n2)c1      -0.32%
19  O=C(Nc1ccc(Oc2ccc3[nH]c(NC(=O)c4ccco4)nc3c2)cc1)Nc1cc(C(F)(F)F)ccc1F       4.28%
20  CCS(=O)(=O)c1ccc(OC)c(Nc2ncc(-c3cccc(OC)c3)o2)c1       2.34%
21   COc1ccc2ncnc(Nc3ccc(OCc4ccccc4)cc3)c2c1       1.95%
